- Test system: Escherichia coli TOP10
- test protocol: shrunken log2 fold change of peptide-encoding DNA abundance (4.5 h post-induction vs induction); higher = less antimicrobial activity (less host growth inhibition)
- experimental parameters: time post-induction: 4.5 h; library: site-saturation at positions 5, 18, 19, 20

seq string | shrunken log2 fold change
RRIRNRPPRLPRPRPRPMTDPRP | -0.088
RRIRVRPPRLPRPRPRPTQFPRP | 0.203
RRIRMRPPRLPRPRPRPAMGPRP | 0.867
RRIRLRPPRLPRPRPRPLPDPRP | 0.327
RRIRDRPPRLPRPRPRPYKSPRP | -0.106
RRIRFRPPRLPRPRPRPVLDPRP | -0.474
RRIRHRPPRLPRPRPRPLGFPRP | 0.114
RRIRARPPRLPRPRPRPPGFPRP | 0.59
RRIRGRPPRLPRPRPRPAAHPRP | 0.807
RRIRNRPPRLPRPRPRPIMCPRP | -0.148
RRIRPRPPRLPRPRPRPGWFPRP | 0.238
RRIRMRPPRLPRPRPRPHMWPRP | 0.108
RRIRWRPPRLPRPRPRPSFSPRP | -0.286
RRIRDRPPRLPRPRPRPQPLPRP | 0.194
RRIRDRPPRLPRPRPRPYVRPRP | -0.402
RRIRDRPPRLPRPRPRPNPKPRP | 0.165
RRIRIRPPRLPRPRPRPVIPPRP | -0.358
RRIRERPPRLPRPRPRPQKFPRP | -0.259
RRIRSRPPRLPRPRPRPVKWPRP | -0.03
RRIRDRPPRLPRPRPRPKDIPRP | -0.0599
RRIRERPPRLPRPRPRPCSFPRP | -0.153
RRIRMRPPRLPRPRPRPWKPPRP | -0.0836
RRIRVRPPRLPRPRPRPFCLPRP | -0.357
RRIRIRPPRLPRPRPRPKGAPRP | 0.36
RRIRRRPPRLPRPRPRPSAGPRP | 0.392
RRIRNRPPRLPRPRPRPINHPRP | -0.705
RRIRIRPPRLPRPRPRPTDCPRP | -0.196
RRIRARPPRLPRPRPRPQDFPRP | -0.0122
RRIRMRPPRLPRPRPRPFGVPRP | 0.0231
RRIRWRPPRLPRPRPRPCKFPRP | -0.24
RRIRKRPPRLPRPRPRPEKAPRP | 0.0283
RRIRIRPPRLPRPRPRPAVAPRP | 0.0259

----------
- Test system: Escherichia coli TOP10
- test protocol: shrunken log2 fold change of peptide-encoding DNA abundance (4.5 h post-induction vs induction); higher = less antimicrobial activity (less host growth inhibition)
- experimental parameters: time post-induction: 4.5 h; library: site-saturation at positions 5, 18, 19, 20
List of shrunken log2 fold change values.

seq string | shrunken log2 fold change
RRIRMRPPRLPRPRPRPITLPRP | -0.521
RRIRQRPPRLPRPRPRPRQRPRP | 0.245
RRIRQRPPRLPRPRPRPWIFPRP | -0.0561
RRIRKRPPRLPRPRPRPTYQPRP | -0.191
RRIRIRPPRLPRPRPRPAIMPRP | -0.565
RRIRPRPPRLPRPRPRPFCYPRP | -0.26
RRIRTRPPRLPRPRPRPCTVPRP | -0.442
RRIRSRPPRLPRPRPRPLNAPRP | 0.213
RRIRIRPPRLPRPRPRPQYEPRP | -0.184
RRIRRRPPRLPRPRPRPFEAPRP | 1.04
RRIRTRPPRLPRPRPRPSNWPRP | -0.281
RRIRMRPPRLPRPRPRPERFPRP | 0.0214
RRIRNRPPRLPRPRPRPPDTPRP | -0.0361
RRIRIRPPRLPRPRPRPWFLPRP | -0.802
RRIRSRPPRLPRPRPRPHMHPRP | -0.202

----------
- Test system: Escherichia coli TOP10
- test protocol: shrunken log2 fold change of peptide-encoding DNA abundance (4.5 h post-induction vs induction); higher = less antimicrobial activity (less host growth inhibition)
- experimental parameters: time post-induction: 4.5 h; library: site-saturation at positions 5, 18, 19, 20
Everything with shrunken log2 fold change lower than -0.07 is condition not met; everything else, including exactly -0.07, is condition met.

seq string | category
RRIRNRPPRLPRPRPRPSMCPRP | condition met
RRIRWRPPRLPRPRPRPPDSPRP | condition met
RRIRDRPPRLPRPRPRPKEIPRP | condition met
RRIRMRPPRLPRPRPRPAWSPRP | condition met
RRIRSRPPRLPRPRPRPRKMPRP | condition met
RRIRERPPRLPRPRPRPNSFPRP | condition not met
RRIRRRPPRLPRPRPRPDHVPRP | condition met
RRIRERPPRLPRPRPRPHEKPRP | condition met
RRIRIRPPRLPRPRPRPVHHPRP | condition not met
RRIRARPPRLPRPRPRPLSQPRP | condition met
RRIRHRPPRLPRPRPRPALMPRP | condition met
RRIRRRPPRLPRPRPRPMRTPRP | condition met
RRIRDRPPRLPRPRPRPHTTPRP | condition not met
RRIRERPPRLPRPRPRPQRNPRP | condition not met
RRIRYRPPRLPRPRPRPSFPPRP | condition not met

----------
- System: Escherichia coli TOP10
- test protocol: shrunken log2 fold change of peptide-encoding DNA abundance (4.5 h post-induction vs induction); higher = less antimicrobial activity (less host growth inhibition)
- experimental parameters: time post-induction: 4.5 h; library: site-saturation at positions 5, 18, 19, 20
List of shrunken log2 fold change values.

seq string | shrunken log2 fold change
RRIRFRPPRLPRPRPRPLNYPRP | -0.755
RRIRVRPPRLPRPRPRPVYIPRP | -0.363
RRIRERPPRLPRPRPRPLKGPRP | 0.176
RRIRVRPPRLPRPRPRPWEPPRP | 0.13
RRIRKRPPRLPRPRPRPEVGPRP | 1.29
RRIRDRPPRLPRPRPRPPQGPRP | 0.289
RRIRHRPPRLPRPRPRPNADPRP | 0.031
RRIRIRPPRLPRPRPRPYCTPRP | -0.215

----------
- Test system: Escherichia coli TOP10
- test protocol: shrunken log2 fold change of peptide-encoding DNA abundance (4.5 h post-induction vs induction); higher = less antimicrobial activity (less host growth inhibition)
- experimental parameters: time post-induction: 4.5 h; library: site-saturation at positions 5, 18, 19, 20
Everything with shrunken log2 fold change lower than 0.1 is class 0; everything else, including exactly 0.1, is class 1.

seq string | category
RRIRLRPPRLPRPRPRPGVVPRP | class 1
RRIRIRPPRLPRPRPRPSIRPRP | class 0
RRIRMRPPRLPRPRPRPLRAPRP | class 1
RRIRGRPPRLPRPRPRPAKGPRP | class 0
RRIRCRPPRLPRPRPRPIREPRP | class 0
RRIRPRPPRLPRPRPRPCIMPRP | class 0
RRIRVRPPRLPRPRPRPTGKPRP | class 0
RRIRTRPPRLPRPRPRPFECPRP | class 0
RRIRERPPRLPRPRPRPAFNPRP | class 1
RRIRDRPPRLPRPRPRPENLPRP | class 0
RRIRDRPPRLPRPRPRPVFEPRP | class 1
RRIRLRPPRLPRPRPRPFILPRP | class 0
RRIRKRPPRLPRPRPRPVTAPRP | class 1
RRIRPRPPRLPRPRPRPSWNPRP | class 0
RRIRERPPRLPRPRPRPNRFPRP | class 0

----------
- Test system: Escherichia coli TOP10
- test protocol: shrunken log2 fold change of peptide-encoding DNA abundance (4.5 h post-induction vs induction); higher = less antimicrobial activity (less host growth inhibition)
- experimental parameters: time post-induction: 4.5 h; library: site-saturation at positions 5, 18, 19, 20
Everything with shrunken log2 fold change lower than -0.04 is false; everything else, including exactly -0.04, is true.

seq string | category
RRIRHRPPRLPRPRPRPEWIPRP | false
RRIRARPPRLPRPRPRPCQSPRP | true
RRIRLRPPRLPRPRPRPPTCPRP | true
RRIRCRPPRLPRPRPRPVTPPRP | true
RRIRNRPPRLPRPRPRPMTNPRP | true
RRIRMRPPRLPRPRPRPQAHPRP | true
RRIRARPPRLPRPRPRPMITPRP | true
RRIRCRPPRLPRPRPRPCCGPRP | false
RRIRPRPPRLPRPRPRPTKEPRP | true
RRIRFRPPRLPRPRPRPPRMPRP | true
RRIRKRPPRLPRPRPRPGCFPRP | true
RRIRARPPRLPRPRPRPFQFPRP | false
RRIRERPPRLPRPRPRPRYVPRP | false
RRIRSRPPRLPRPRPRPWWEPRP | false

----------
List of shrunken log2 fold change values.
- System: Escherichia coli TOP10;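 also: peptides expressed intracellularly from a pBAD plasmid library in pooled LB shake-flask culture, induced with 0.3% L-arabinose, DNA abundance read by NGS, three biological replicates, DESeq2 with apeglm shrinkage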
- test protocol: shrunken log2 fold change of peptide-encoding DNA abundance (4.5 h post-induction vs induction); higher = less antimicrobial activity (less host growth inhibition)
- experimental parameters: time post-induction: 4.5 h; library: site-saturation at positions 5, 18, 19, 20
property name: shrunken log2 fold change

seq string | assay target | property name | reported value
RRIRWRPPRLPRPRPRPNCFPRP | Escherichia coli TOP10 | shrunken log2 fold change | -0.0571
RRIRSRPPRLPRPRPRPYRNPRP | Escherichia coli TOP10 | shrunken log2 fold change | -0.254
RRIRMRPPRLPRPRPRPGGPPRP | Escherichia coli TOP10 | shrunken log2 fold change | 0.119
RRIRFRPPRLPRPRPRPDHIPRP | Escherichia coli TOP10 | shrunken log2 fold change | -0.00578
RRIRPRPPRLPRPRPRPKNDPRP | Escherichia coli TOP10 | shrunken log2 fold change | -0.108
RRIRPRPPRLPRPRPRPVWPPRP | Escherichia coli TOP10 | shrunken log2 fold change | 0.341
RRIRYRPPRLPRPRPRPGQTPRP | Escherichia coli TOP10 | shrunken log2 fold change | -0.0773
RRIRPRPPRLPRPRPRPIPFPRP | Escherichia coli TOP10 | shrunken log2 fold change | -0.0358
RRIRTRPPRLPRPRPRPDKRPRP | Escherichia coli TOP10 | shrunken log2 fold change | -0.0389
RRIRRRPPRLPRPRPRPNYHPRP | Escherichia coli TOP10 | shrunken log2 fold change | -0.223
RRIRGRPPRLPRPRPRPEESPRP | Escherichia coli TOP10 | shrunken log2 fold change | 1.82
RRIRKRPPRLPRPRPRPTQDPRP | Escherichia coli TOP10 | shrunken log2 fold change | 1.3
RRIRRRPPRLPRPRPRPARTPRP | Escherichia coli TOP10 | shrunken log2 fold change | 0.35
RRIRMRPPRLPRPRPRPICHPRP | Escherichia coli TOP10 | shrunken log2 fold change | 0.0206
RRIRKRPPRLPRPRPRPHKHPRP | Escherichia coli TOP10 | shrunken log2 fold change | -0.119
RRIRHRPPRLPRPRPRPCNLPRP | Escherichia coli TOP10 | shrunken log2 fold change | -0.135
RRIRHRPPRLPRPRPRPHAKPRP | Escherichia coli TOP10 | shrunken log2 fold change | -0.00884
RRIRERPPRLPRPRPRPTEVPRP | Escherichia coli TOP10 | shrunken log2 fold change | -0.121
RRIRFRPPRLPRPRPRPIQIPRP | Escherichia coli TOP10 | shrunken log2 fold change | -0.234
RRIRKRPPRLPRPRPRPKRDPRP | Escherichia coli TOP10 | shrunken log2 fold change | 0.539
RRIRWRPPRLPRPRPRPCVIPRP | Escherichia coli TOP10 | shrunken log2 fold change | -0.059
RRIRYRPPRLPRPRPRPSISPRP | Escherichia coli TOP10 | shrunken log2 fold change | -0.601
RRIRSRPPRLPRPRPRPFLSPRP | Escherichia coli TOP10 | shrunken log2 fold change | -0.063
RRIRNRPPRLPRPRPRPHWVPRP | Escherichia coli TOP10 | shrunken log2 fold change | -0.0512
RRIRKRPPRLPRPRPRPSPMPRP | Escherichia coli TOP10 | shrunken log2 fold change | 0.132
RRIRLRPPRLPRPRPRPHPNPRP | Escherichia coli TOP10 | shrunken log2 fold change | -0.247
RRIRSRPPRLPRPRPRPLLKPRP | Escherichia coli TOP10 | shrunken log2 fold change | 0.253
RRIRMRPPRLPRPRPRPEHTPRP | Escherichia coli TOP10 | shrunken log2 fold change | 2.63
RRIRGRPPRLPRPRPRPKQLPRP | Escherichia coli TOP10 | shrunken log2 fold change | -0.00285
RRIRVRPPRLPRPRPRPFVCPRP | Escherichia coli TOP10 | shrunken log2 fold change | -0.744
RRIRLRPPRLPRPRPRPFAVPRP | Escherichia coli TOP10 | shrunken log2 fold change | -0.0849
RRIRWRPPRLPRPRPRPPSMPRP | Escherichia coli TOP10 | shrunken log2 fold change | 0.405
